test: Inhibition of Mycobacterium tuberculosis MurX using UDP-MurNAc-dansylpentapeptide as substrate by fluorescence assay
Listing of entries alongside the reported IC50.
A number alone suffices; assume nM.

Before answering, review these 2 worked examples.
C[C@@H]([C@H](NC(=O)[C@H](CC1CCCCC1)NC(=O)N[C@@H](Cc1c[nH]c2ccccc12)C(=O)NCc1ccccc1)C(=O)NC[C@H]1C[C@@H](O)[C@H](n2ccc(=O)[nH]c2=O)O1)N(C)C(=O)CN 66
C[C@@H]([C@H](NC(=O)[C@H](CC1CCCCC1)NC(=O)N[C@@H](Cc1c[nH]c2ccccc12)C(=O)NCC(C)(C)C)C(=O)NC[C@H]1C[C@@H](O)[C@H](n2ccc(=O)[nH]c2=O)O1)N(C)C(=O)CN 60

Inquiry: Please look at this compound and report its IC50: C[C@@H]([C@H](NC(=O)[C@H](Cc1ccc2ccccc2c1)NC(=O)N[C@@H](Cc1c[nH]c2ccccc12)C(=O)OCC(C)(C)C)C(=O)NC[C@H]1C[C@@H](O)[C@H](n2ccc(=O)[nH]c2=O)O1)N(C)C(=O)CN
Reply text: 801
